Quick reference: fluorescence intensity of the listed items.
# STUDY_SYSTEM: T1, Cynomolgus monkey glycophorin A on Cynomolgus monkey red blood cells (Cynomolgus monkey)
# T1 construct: whole, on cells; also called Cyno RBC; Cyno GPA
# ASSAY_REMARKS: FACS, RBC Cy02
Answer with the value's number alone.

Consider the worked cases shown below.
BINDER | fluorescence intensity
Hu6C12-22 (antibody, V domains shown, IgG format; VH.1e + Vk.1b) VH: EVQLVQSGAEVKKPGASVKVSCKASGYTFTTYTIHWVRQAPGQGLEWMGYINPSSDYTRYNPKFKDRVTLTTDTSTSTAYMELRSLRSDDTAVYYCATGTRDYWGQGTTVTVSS VL: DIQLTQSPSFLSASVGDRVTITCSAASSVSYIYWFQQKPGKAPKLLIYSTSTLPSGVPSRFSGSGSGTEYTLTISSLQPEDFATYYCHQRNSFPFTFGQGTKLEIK | 1170
Hu6C12-13 (antibody, V domains shown, IgG format; VH.1d + Vk.1a) VH: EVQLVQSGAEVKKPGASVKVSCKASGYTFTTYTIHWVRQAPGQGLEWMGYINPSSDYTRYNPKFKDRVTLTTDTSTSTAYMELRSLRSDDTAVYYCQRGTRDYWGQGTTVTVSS VL: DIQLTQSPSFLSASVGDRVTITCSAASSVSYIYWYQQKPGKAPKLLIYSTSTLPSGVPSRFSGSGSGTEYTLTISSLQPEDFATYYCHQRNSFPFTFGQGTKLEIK | 937
Hu6C12-20 (antibody, V domains shown, IgG format; VH.1c + Vk.1b) VH: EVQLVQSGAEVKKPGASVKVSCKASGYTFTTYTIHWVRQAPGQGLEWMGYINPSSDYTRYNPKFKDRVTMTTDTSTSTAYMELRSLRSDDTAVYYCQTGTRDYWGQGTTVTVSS VL: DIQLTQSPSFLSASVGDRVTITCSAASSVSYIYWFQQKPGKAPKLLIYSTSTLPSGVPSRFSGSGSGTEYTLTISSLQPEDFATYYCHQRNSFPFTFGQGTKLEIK | 1250
Hu6C12-11 (antibody, V domains shown, IgG format; VH.1b + Vk.1a) VH: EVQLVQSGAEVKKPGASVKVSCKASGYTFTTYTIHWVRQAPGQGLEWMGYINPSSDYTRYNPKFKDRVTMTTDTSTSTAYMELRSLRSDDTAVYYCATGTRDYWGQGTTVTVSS VL: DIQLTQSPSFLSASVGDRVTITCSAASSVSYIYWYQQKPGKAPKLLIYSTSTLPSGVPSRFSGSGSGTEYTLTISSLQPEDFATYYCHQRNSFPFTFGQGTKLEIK | 1020
Hu6C12-24 (antibody, V domains shown, IgG format; VH.1g + Vk.1b) VH: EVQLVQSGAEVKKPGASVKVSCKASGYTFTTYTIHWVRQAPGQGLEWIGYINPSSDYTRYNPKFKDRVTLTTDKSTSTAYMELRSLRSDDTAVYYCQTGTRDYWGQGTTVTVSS VL: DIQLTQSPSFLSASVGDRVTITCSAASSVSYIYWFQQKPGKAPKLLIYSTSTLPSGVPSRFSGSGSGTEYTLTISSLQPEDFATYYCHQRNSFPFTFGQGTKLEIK | 1770
Hu6C12-19 (antibody, V domains shown, IgG format; VH.1b + Vk.1b) VH: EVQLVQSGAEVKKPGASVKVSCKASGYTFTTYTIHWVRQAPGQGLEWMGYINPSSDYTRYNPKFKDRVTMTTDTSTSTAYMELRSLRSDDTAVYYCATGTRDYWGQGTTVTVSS VL: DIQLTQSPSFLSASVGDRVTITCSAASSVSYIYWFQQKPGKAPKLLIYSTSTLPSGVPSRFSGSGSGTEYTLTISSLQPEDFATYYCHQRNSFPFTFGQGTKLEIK | 1240

What value of measured fluorescence intensity is listed for Hu6C12-7 (antibody, V domains shown, IgG format; VH.1g + Vk.1) VH: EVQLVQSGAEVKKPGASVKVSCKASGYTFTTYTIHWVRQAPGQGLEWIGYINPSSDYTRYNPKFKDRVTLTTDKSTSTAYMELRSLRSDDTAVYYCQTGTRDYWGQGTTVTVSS VL: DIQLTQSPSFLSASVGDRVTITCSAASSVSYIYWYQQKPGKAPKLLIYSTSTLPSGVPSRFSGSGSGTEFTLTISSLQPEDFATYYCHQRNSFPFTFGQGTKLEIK ? 1430

What value of measured fluorescence intensity is listed for Hu6C12-2 (antibody, V domains shown, IgG format; VH.1b + Vk.1) VH: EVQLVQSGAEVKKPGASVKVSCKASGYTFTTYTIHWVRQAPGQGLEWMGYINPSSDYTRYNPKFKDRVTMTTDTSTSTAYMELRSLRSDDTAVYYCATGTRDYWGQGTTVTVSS VL: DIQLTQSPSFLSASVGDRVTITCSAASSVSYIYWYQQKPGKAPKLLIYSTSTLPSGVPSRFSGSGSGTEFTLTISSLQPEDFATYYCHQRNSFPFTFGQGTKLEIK ? 1030

What value of measured fluorescence intensity is listed for Hu6C12-1 (antibody, V domains shown, IgG format; VH.1a + Vk.1) VH: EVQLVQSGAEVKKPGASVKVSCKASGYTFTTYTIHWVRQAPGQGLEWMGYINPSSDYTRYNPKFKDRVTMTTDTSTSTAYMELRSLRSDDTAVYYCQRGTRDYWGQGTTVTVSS VL: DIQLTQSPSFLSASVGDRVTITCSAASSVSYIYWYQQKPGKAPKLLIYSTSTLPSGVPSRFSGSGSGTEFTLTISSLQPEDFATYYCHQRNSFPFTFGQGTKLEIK ? 801

What value of measured fluorescence intensity is listed for Hu6C12-6 (antibody, V domains shown, IgG format; VH.1f + Vk.1) VH: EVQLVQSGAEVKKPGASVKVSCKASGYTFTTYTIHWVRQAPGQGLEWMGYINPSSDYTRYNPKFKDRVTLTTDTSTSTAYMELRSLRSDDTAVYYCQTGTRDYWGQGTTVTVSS VL: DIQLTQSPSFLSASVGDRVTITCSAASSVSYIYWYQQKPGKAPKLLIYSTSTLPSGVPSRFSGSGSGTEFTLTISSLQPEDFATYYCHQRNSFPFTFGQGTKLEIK ? 1100

These measurements were taken from patent US20190359687A1.
